All figures here come from paper PMC4865847.

- ASSAY_TARGET: T. maritima HK853 (Thermotoga maritima)
- Sequence (Q9WZV7 232-489): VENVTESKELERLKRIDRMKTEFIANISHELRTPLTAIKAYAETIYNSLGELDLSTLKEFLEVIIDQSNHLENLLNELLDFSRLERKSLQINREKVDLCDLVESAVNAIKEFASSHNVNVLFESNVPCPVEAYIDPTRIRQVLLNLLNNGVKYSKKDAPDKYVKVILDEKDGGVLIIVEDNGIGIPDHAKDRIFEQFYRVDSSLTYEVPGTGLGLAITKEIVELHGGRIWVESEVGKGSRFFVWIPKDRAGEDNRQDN
- PROCEDURE_SUMMARY: In vitro autophosphorylation kinase assay with γ-32P-ATP, HK853
- Format: biochemical
- RUN_CONDITIONS: autophosphorylation, one time point (30 sec), 10% DMSO; read-out: IC50 HK853
pIC50: −log10 of the molar value.
METRIC_NAME: pIC50

Exam item: # return recorded pIC50 for input CC(=O)Nc1cccc(C(C)NCc2cccc(Br)c2)c1 (stereo not shown)
Marked response: < 2.30

###

- ASSAY_TARGET: S. pneumoniae WalK (Streptococcus pneumoniae)
- Construct: WalK (amino acids from 208 to 449); N-terminal His6-3C site of vector pOPINF (own knowledge of the vector); made in house; host or cells: E. coli RIL
- Sequence (Q8DPL8 208-449): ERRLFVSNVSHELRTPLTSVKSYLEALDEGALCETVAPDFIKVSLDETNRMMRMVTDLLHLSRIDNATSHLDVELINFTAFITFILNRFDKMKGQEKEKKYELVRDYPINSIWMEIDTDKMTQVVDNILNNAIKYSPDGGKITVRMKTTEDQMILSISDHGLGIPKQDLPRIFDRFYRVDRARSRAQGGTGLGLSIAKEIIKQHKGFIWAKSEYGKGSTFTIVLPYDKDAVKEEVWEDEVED
- PROCEDURE_SUMMARY: In vitro autophosphorylation kinase assay with γ-32P-ATP, WalK
- Type: biochemical
- RUN_CONDITIONS: IC50 WalK, autophosphorylation, one time point (30 sec), 10% DMSO
Please provide measured IC50 for the entries that follow.

Would you please look over these solved cases?
>  <MOLECULE>
CCC(Nc1cccc(NC(C)=O)c1)c1ccc(F)cc1 (centres unmarked)

>  <ASSAY_TARGET>
S. pneumoniae WalK (Streptococcus pneumoniae)

>  <IC50>
> 1000 µM

$$$$
>  <MOLECULE>
CC(OC(=O)c1cccc(S(=O)(=O)N2CCc3ccccc3C2)c1)C(=O)NC(N)=O (centres unmarked)

>  <ASSAY_TARGET>
S. pneumoniae WalK (Streptococcus pneumoniae)

>  <IC50>
> 5000 µM

$$$$
>  <MOLECULE>
O=C(CCN1c2ccccc2Sc2ccccc21)OCc1cc(=O)n2ccsc2n1

>  <ASSAY_TARGET>
S. pneumoniae WalK (Streptococcus pneumoniae)

>  <IC50>
> 5000 µM

$$$$
>  <MOLECULE>
CC(=O)Nc1cccc(C(C)NCc2cccc(Br)c2)c1 (centres unmarked)

>  <ASSAY_TARGET>
S. pneumoniae WalK (Streptococcus pneumoniae)

>  <IC50>
~1000 µM

$$$$
>  <MOLECULE>
Nc1ncc(-c2ccc(Br)cc2)s1

>  <ASSAY_TARGET>
S. pneumoniae WalK (Streptococcus pneumoniae)

>  <IC50>
> 2000 µM

$$$$

Hey, quick one: what's IC50 for each of these?
1. Brc1ccc(C2=CSC3=NCCN23)cc1
2. CNC(=O)NC(=O)CSc1nc2sc3c(c2c(=O)n1-c1ccccc1F)CCCC3
3. NCCc1ccc2c(c1)[nH]c1ccccc12
4. Nc1nc(-c2ccc(Cl)cc2)cs1
5. O=c1c2ccccc2[nH]c2ccc(O)cc12

Marked response:
> 2000 µM
> 5000 µM
> 2000 µM
> 2000 µM
> 2000 µM

Exam item: Enter measured IC50, system S. pneumoniae WalK (Streptococcus pneumoniae), for the molecule shown: "COc1ccc(-c2csc(N)n2)cc1OC"
Marked response: > 2000 µM
